Just for reference, the Immune Epitope Database (IEDB) is where these values come from.

- ASSAYED TARGET: HLA-B*53:01
- PROCEDURE SUMMARY: IEDB peptide-MHC binding, purified MHC/competitive/fluorescence; filed as Kd, often an IC50 or EC50 that approximates it; bounds were set here for any values at or beyond the usual limits of such assays
- TEST CONTEXT: source organism: Bacillus anthracis str. A0488
MEASURED QUANTITY: Kd

Form field: Kd recorded for WDAYIPHYV with HLA-B*53:01 (enter value)
≥ 5 µM

* * *

- ASSAYED TARGET: HLA-B*15:09
- PROCEDURE SUMMARY: IEDB peptide-MHC binding, purified MHC/competitive/fluorescence; filed as Kd, often an IC50 or EC50 that approximates it; bounds were set here for any values at or beyond the usual limits of such assays
- TEST CONTEXT: source organism: Mycobacterium tuberculosis variant bovis BCG str. Pasteur 1173P2
MEASURED QUANTITY: Kd (µM)
Dear colleague, please return just the value in µM, with no unit written.

Form field: Kd recorded for KPIPHRTVL with HLA-B*15:09 (enter value)
1.32

* * *

- ASSAYED TARGET: HLA-A*02:06
- PROCEDURE SUMMARY: IEDB peptide-MHC binding, purified MHC/competitive/radioactivity; filed as Kd, often an IC50 or EC50 that approximates it; bounds were set here for any values at or beyond the usual limits of such assays
- TEST CONTEXT: source organism: Mammarenavirus tacaribeense
MEASURED QUANTITY: Kd (µM)
Dear colleague, please return just the value in µM, with no unit written.

SEQ TEXT: INISGYNLSL
Kd, µM: 11.4

Which Kd value belongs to KSFFWFNEV ?
0.00318

* * *

- ASSAYED TARGET: HLA-A*02:01
- PROCEDURE SUMMARY: IEDB peptide-MHC binding, purified MHC/competitive/fluorescence; bounds were set here for any values at or beyond the usual limits of such assays
- TEST CONTEXT: source organism: Monodelphis domestica
pIC50: −log10 of the molar value.
MEASURED QUANTITY: pIC50

Form field: pIC50 recorded for LEYFQFVKKLL with HLA-A*02:01 (enter value)
≤ 4.70

* * *

- ASSAYED TARGET: HLA-A*11:01
- PROCEDURE SUMMARY: IEDB peptide-MHC binding, purified MHC/direct/fluorescence; filed as Kd, often an IC50 or EC50 that approximates it; bounds were set here for any values at or beyond the usual limits of such assays
- TEST CONTEXT: source organism: Yellow fever virus
pKd: −log10 of the molar value.
MEASURED QUANTITY: pKd

Which pKd value belongs to TKDTNDNNL ?
≤ 4.70

* * *

- ASSAYED TARGET: HLA-B*08:02
- PROCEDURE SUMMARY: IEDB peptide-MHC binding, purified MHC/direct/fluorescence; filed as Kd, often an IC50 or EC50 that approximates it; bounds were set here for any values at or beyond the usual limits of such assays
- TEST CONTEXT: source organism: Escherichia coli O157:H7 str. EC869
MEASURED QUANTITY: Kd (nM)
Dear colleague, please return just the value in nM, with no unit written.

Which Kd value belongs to RMKMRRPHL ?
2360

* * *

Below, each of the sequences is paired with its reported Kd value.
- ASSAYED TARGET: HLA-A*26:01
- PROCEDURE SUMMARY: IEDB peptide-MHC binding, purified MHC/competitive/radioactivity; filed as Kd, often an IC50 or EC50 that approximates it; bounds were set here for any values at or beyond the usual limits of such assays
- TEST CONTEXT: source organism: Mammarenavirus guanaritoense

SEQ TEXT: STGNYVHCF
MEASUREMENT: ≥ 69.2 µM

Which Kd value belongs to VFQPSTGNYV ?
≥ 69.7 µM

* * *

- ASSAYED TARGET: HLA-A*26:01
- PROCEDURE SUMMARY: IEDB peptide-MHC binding, purified MHC/competitive/radioactivity; filed as Kd, often an IC50 or EC50 that approximates it; bounds were set here for any values at or beyond the usual limits of such assays
- TEST CONTEXT: source organism: Influenza A virus (A/Ann Arbor/6/1960(H2N2))
pKd: −log10 of the molar value.
MEASURED QUANTITY: pKd

Which pKd value belongs to RQEMASRGLW ?
≤ 4.16

* * *

- ASSAYED TARGET: HLA-B*15:42
- PROCEDURE SUMMARY: IEDB peptide-MHC binding, purified MHC/competitive/fluorescence; filed as Kd, often an IC50 or EC50 that approximates it; bounds were set here for any values at or beyond the usual limits of such assays
- TEST CONTEXT: source organism: Mycosarcoma maydis
MEASURED QUANTITY: Kd

Form field: Kd recorded for IPVHPRHPY with HLA-B*15:42 (enter value)
≥ 5 µM

* * *

- ASSAYED TARGET: HLA-A*31:01
- PROCEDURE SUMMARY: IEDB peptide-MHC binding, purified MHC/direct/fluorescence; filed as Kd, often an IC50 or EC50 that approximates it; bounds were set here for any values at or beyond the usual limits of such assays
- TEST CONTEXT: source organism: Influenza A virus (A/whooper swan/Mongolia/6/05(H5N1))
MEASURED QUANTITY: Kd

Form field: Kd recorded for SSDDFALIV with HLA-A*31:01 (enter value)
≥ 20 µM

* * *

Below, each of the sequences is paired with its reported Kd value.
- ASSAYED TARGET: HLA-A*33:01
- PROCEDURE SUMMARY: IEDB peptide-MHC binding, purified MHC/competitive/radioactivity; filed as Kd, often an IC50 or EC50 that approximates it; bounds were set here for any values at or beyond the usual limits of such assays
- TEST CONTEXT: source organism: Dengue virus 1 Brazil/97-11/1997
Dear colleague, please return just the value in nM, with no unit written.

Use these answered entries as a reference point.
SEQ TEXT: GFLSRNKKPR
MEASUREMENT: 1770

SEQ TEXT: MWQLMYFHRR
MEASUREMENT: 11.3

SEQ TEXT: MTSRMLLNR
MEASUREMENT: 2.47

Now consider the entry below.
Which Kd value belongs to EVMRSRWSR ?
4.12

* * *

- ASSAYED TARGET: HLA-B*57:01
- PROCEDURE SUMMARY: IEDB peptide-MHC binding, purified MHC/competitive/fluorescence; filed as Kd, often an IC50 or EC50 that approximates it; bounds were set here for any values at or beyond the usual limits of such assays
- TEST CONTEXT: source organism: Variola virus
MEASURED QUANTITY: pKd
Expect pKd as a plain number equal to -log10 of the molar concentration.

Which pKd value belongs to EYKKFIATF ?
5.31

* * *

Below, each of the sequences is paired with its reported Kd value.
- ASSAYED TARGET: HLA-B*44:02
- PROCEDURE SUMMARY: IEDB peptide-MHC binding, purified MHC/competitive/radioactivity; filed as Kd, often an IC50 or EC50 that approximates it; bounds were set here for any values at or beyond the usual limits of such assays
- TEST CONTEXT: source organism: Mammarenavirus lassaense
Dear colleague, please return just the value in µM, with no unit written.

SEQ TEXT: YDFNKLTAL
Kd, µM: 2.27

Now consider the entry below.
Which Kd value belongs to SEAQMSIQL ?
0.161

* * *

- ASSAYED TARGET: HLA-B*15:17
- PROCEDURE SUMMARY: IEDB peptide-MHC binding, purified MHC/direct/fluorescence; filed as Kd, often an IC50 or EC50 that approximates it; bounds were set here for any values at or beyond the usual limits of such assays
- TEST CONTEXT: source organism: Listeria monocytogenes serotype 4b str. H7858
MEASURED QUANTITY: Kd

SEQ TEXT: ERYPGGVSL
ASSAYED TARGET: HLA-B*15:17
Kd: ≥ 20 µM

Now consider the entry below.
Form field: Kd recorded for FPDGKPFTL with HLA-B*15:17 (enter value)
≥ 20 µM

* * *

- ASSAYED TARGET: HLA-A*24:03
- PROCEDURE SUMMARY: IEDB peptide-MHC binding, purified MHC/direct/fluorescence; filed as Kd, often an IC50 or EC50 that approximates it; bounds were set here for any values at or beyond the usual limits of such assays
- TEST CONTEXT: source organism: Camelpox virus M-96
MEASURED QUANTITY: pKd
Expect pKd as a plain number equal to -log10 of the molar concentration.

Which pKd value belongs to EYKKFIATF ?
7.49

* * *

- ASSAYED TARGET: HLA-B*39:01
- PROCEDURE SUMMARY: IEDB peptide-MHC binding, purified MHC/competitive/fluorescence; filed as Kd, often an IC50 or EC50 that approximates it; bounds were set here for any values at or beyond the usual limits of such assays
- TEST CONTEXT: source organism: Salmonella enterica subsp. enterica serovar Typhi
pKd: −log10 of the molar value.
MEASURED QUANTITY: pKd

Which pKd value belongs to WLMKYPYQL ?
≥ 9.00
